Data provenance: the supplement of paper PMC9112550

System: Escherichia coli TOP10;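 note: peptides expressed intracellularly from a pBAD plasmid library in pooled LB shake-flask culture, induced with 0.3% L-arabinose, DNA abundance read by NGS, three biological replicates, DESeq2 with apeglm shrinkage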
Experiment summary: shrunken log2 fold change of peptide-encoding DNA abundance (4.5 h post-induction vs induction); higher = less antimicrobial activity (less host growth inhibition)
Condition info: time post-induction: 4.5 h; library: site-saturation at positions 5, 18, 19, 20
Use T when the recorded shrunken log2 fold change is no lower than -0.05; use F when it is lower.

INSERT INTO assay_data (seq_text, group_label) VALUES
  ('RRIRQRPPRLPRPRPRPIRKPRP', 'T'),
  ('RRIRPRPPRLPRPRPRPTSWPRP', 'T'),
  ('RRIRLRPPRLPRPRPRPENWPRP', 'T');

-- ask Does `RRIRMRPPRLPRPRPRPPNVPRP` have a reported shrunken log2 fold change of at least -0.05?
-- reply T

-- ask Does `RRIRNRPPRLPRPRPRPVDQPRP` have a reported shrunken log2 fold change of at least -0.05?
-- reply F

-- ask Does `RRIRMRPPRLPRPRPRPLTAPRP` have a reported shrunken log2 fold change of at least -0.05?
-- reply T
